Subject Of Test: UniProt P61169
Sequence (P61169 whole entry): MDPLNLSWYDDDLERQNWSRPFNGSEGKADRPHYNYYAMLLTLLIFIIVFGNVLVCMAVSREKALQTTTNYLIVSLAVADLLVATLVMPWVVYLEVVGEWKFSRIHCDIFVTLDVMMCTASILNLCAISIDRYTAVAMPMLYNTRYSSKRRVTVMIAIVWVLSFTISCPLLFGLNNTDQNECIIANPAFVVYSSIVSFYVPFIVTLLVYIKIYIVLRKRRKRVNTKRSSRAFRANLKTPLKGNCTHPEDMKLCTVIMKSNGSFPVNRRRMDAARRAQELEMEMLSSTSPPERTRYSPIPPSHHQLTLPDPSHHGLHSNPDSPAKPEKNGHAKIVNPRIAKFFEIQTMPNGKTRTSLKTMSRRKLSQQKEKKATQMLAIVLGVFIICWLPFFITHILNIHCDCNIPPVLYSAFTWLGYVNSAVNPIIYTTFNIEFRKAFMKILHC
Test Details: Binding affinity against Dopamine receptor D2 in rat striatal membrane using [3H]spiroperidol as radioligand
Format: cell membranes, Striatum
Parameter Measured: IC50 (nM)
Unit nM implied. Number only.

Molecule	Subject Of Test	Unit Text	IC50
COc1cccc2c1CCCC2C(=O)NCCN1CCN(c2ccccc2)CC1 (centres undefined)	UniProt P61169	nM	4040
COc1cccc2c1CCCC2NCCN1CCN(c2ccccn2)CC1 (centres undefined)	UniProt P61169	nM	1850
COc1cccc2c1CCCC2CNCCN1CCN(c2ccccc2)CC1 (centres undefined)	UniProt P61169	nM	1100
COc1ccccc1N1CCN(CCCNC2CCCc3c(OC)cccc32)CC1 (centres undefined)	UniProt P61169	nM	1060
COc1ccccc1N1CCN(CCN(C)C2CCCc3c(OC)cccc32)CC1 (centres undefined)	UniProt P61169	nM	73

Query :: // returns reported IC50 for input COc1ccccc1N1CCN(CCN(C)C(=O)C2CCCc3c(OC)cccc32)CC1 (centres undefined)
Result :: 332

Query :: // returns reported IC50 for input COc1cccc2c1CCCC2C(=O)NCCCN1CCN(c2ccccc2)CC1 (centres undefined)
Result :: 783

Query :: // returns reported IC50 for input COc1cccc2c1CCCC2NC(=O)CCN1CCN(c2ccccc2)CC1 (centres undefined)
Result :: 2970

Query :: // returns reported IC50 for input COc1ccccc1N1CCN(CCC(=O)NC2CCCc3c(OC)cccc32)CC1 (centres undefined)
Result :: 761

The reported measurements were obtained from ChEMBL document CHEMBL1129269.
